Measured Selectivity Index = IC50 (AChE)/IC50 (BuChE) of individual entries
- experimental_target: acetylcholinesterase (AChE, from an electric eel) (Electrophorus electricus)
- Construct: purchased Sigma-Aldrich
- Sequence (O42275 24-633): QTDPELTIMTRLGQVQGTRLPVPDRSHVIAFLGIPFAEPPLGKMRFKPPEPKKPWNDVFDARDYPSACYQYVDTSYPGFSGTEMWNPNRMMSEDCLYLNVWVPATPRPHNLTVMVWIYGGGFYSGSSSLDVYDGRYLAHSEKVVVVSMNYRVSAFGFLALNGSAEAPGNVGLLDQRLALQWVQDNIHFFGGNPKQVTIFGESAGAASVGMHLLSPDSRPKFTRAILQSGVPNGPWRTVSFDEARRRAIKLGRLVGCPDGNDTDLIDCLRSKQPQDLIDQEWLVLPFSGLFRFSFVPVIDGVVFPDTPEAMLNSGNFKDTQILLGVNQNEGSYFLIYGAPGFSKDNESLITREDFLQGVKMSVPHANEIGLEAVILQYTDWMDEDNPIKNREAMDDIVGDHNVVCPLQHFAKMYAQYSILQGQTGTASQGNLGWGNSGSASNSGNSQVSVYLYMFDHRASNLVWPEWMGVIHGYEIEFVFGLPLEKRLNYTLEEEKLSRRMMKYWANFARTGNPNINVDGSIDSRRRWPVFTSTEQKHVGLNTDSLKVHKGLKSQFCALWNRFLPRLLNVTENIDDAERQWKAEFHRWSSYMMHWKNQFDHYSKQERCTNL
- test_details: biochemical
- setup_conditions: ratio of eeAChE and equine BuChE IC50
The answer should be written as a number, with no unit following it.

Example results:
Oc1ccc(F)c2ccc(CN3CCN(CCNc4c5c(nc6ccccc46)CCCC5)CC3)nc12 [Compound 16b]: 0.95
O=C(CN1CCN(Cc2ccc(O)c3ncccc23)CC1)Nc1c2c(nc3ccccc13)CCCC2 [Compound 17a]: 1.08
Oc1ccc(Cl)c2ccc(CN3CCN(CCCCCNc4c5c(nc6ccccc46)CCCC5)CC3)nc12 [Compound 16j]: 2.89
Oc1cccc2ccc(CN3CCN(CCCNc4c5c(nc6ccccc46)CCCC5)CC3)nc12 [Compound 16e]: 2.33
Oc1cccc2ccc(CN3CCN(CCNc4c5c(nc6ccccc46)CCCC5)CC3)nc12 [Compound 16a]: 1.63

In: Answer with the recorded Selectivity Index = IC50 (AChE)/IC50 (BuChE) for the compound listed here: Cc1ccc2c(CN3CCN(CC(=O)Nc4c5c(nc6ccccc46)CCCC5)CC3)ccc(O)c2n1 [Compound 17b]
Out: 0.58
